FYI, the data here is from ChEMBL document CHEMBL6177961.

- assay_name: Cytotoxicity against African green monkey Vero cells
- Assay type: toxicity, cell-based
- condition: African green monkey (Chlorocebus sabaeus)
pIC50: −log10 of the molar value.
Overview of recorded pIC50 for various compounds

compound	endpoint_label	reported_measurement
C/C=C/C[C@@H]1NC(=O)[C@H](CC(C)C)N2C(=O)[C@H](CC(C)[C@H]2O)N(C)C(=O)[C@H](C)NC(=O)[C@H](Cc2ccc(OC)c([N+](=O)[O-])c2)NC(=O)[C@H](CC(C)C)N(C)C(=O)[C@H](Cc2cn(C(C)(C)[C@H]3CO3)c3ccccc23)N(C)C1=O (some centres undefined)	pIC50	< 4.00
C/C=C/C[C@@H]1NC(=O)[C@H](CC(C)C)N2C=C(C)C[C@@H](C2=O)N(C)C(=O)[C@H](C)NC(=O)[C@H](Cc2ccc3ocnc3c2)NC(=O)[C@H](CC(C)C)N(C)C(=O)[C@H](Cc2cn(C(C)(C)[C@H](O)CCl)c3ccccc23)NC1=O	pIC50	< 4.00
C/C=C/C[C@@H]1NC(=O)[C@H](CC(C)C)N2C=C(C)C[C@@H](C2=O)N(C)C(=O)[C@H](C)NC(=O)[C@H](Cc2ccc(OC)c([N+](=O)[O-])c2)NC(=O)[C@H](CC(C)C)N(C)C(=O)[C@H](Cc2cn(C(C)(C)[C@H]3CO3)c3ccccc23)NC1=O	pIC50	4.01

Which pIC50 reading was recorded for the compound `C/C=C/C[C@@H]1NC(=O)[C@H](CC(C)C)N2C(=O)[C@H](C[C@@H](C)[C@H]2OCCCC)N(C)C(=O)[C@H](C)NC(=O)[C@H](Cc2ccc(O)c([N+](=O)[O-])c2)NC(=O)[C@H](CC(C)C)N(C)C(=O)[C@H](Cc2cn(C(C)(C)[C@H](O)CCl)c3ccccc23)NC1=O` ?
< 4.00

---

- Tested on: Mycobacterium tuberculosis
- assay_name: Antimycobacterial activity against Mycobacterium tuberculosis H37Rv ATCC 27294 assessed as reduction in bacterial growth by microplate alamar blue assay
- Format: functional
Listing of recorded MIC by entry.
The figure you give is taken to be in µM; do not add the unit.

Field: example entries. Status: answers known.
compound	MIC, µM
CO[C@H]1/C=C/O[C@@]2(C)Oc3c(C)c(O)c4c(O)c(c(/C=N/N5CCN(C)CC5)c(O)c4c3C2=O)NC(=O)/C(C)=C\C=C\[C@H](C)[C@H](O)[C@@H](C)[C@@H](O)[C@@H](C)[C@H](OC(C)=O)[C@@H]1C [RIFAMPIN]	0.03
C/C=C/C[C@@H]1NC(=O)[C@H](CC(C)C)N2C(=O)[C@H](CC(C)[C@H]2OCCC)N(C)C(=O)[C@H](C)NC(=O)[C@H](Cc2ccc(O)c([N+](=O)[O-])c2)NC(=O)[C@H](CC(C)C)N(C)C(=O)[C@H](Cc2cn(C(C)(C)[C@H](O)CCl)c3ccccc23)NC1=O (some centres undefined)	0.75
C/C=C/C[C@@H]1NC(=O)[C@H](CC(C)C)N2C(=O)[C@H](C[C@@H](C)[C@H]2OCCCC)N(C)C(=O)[C@H](C)NC(=O)[C@H](Cc2ccc(O)c([N+](=O)[O-])c2)NC(=O)[C@H](CC(C)C)N(C)C(=O)[C@H](Cc2cn(C(C)(C)[C@H](O)CCl)c3ccccc23)NC1=O	4.3

Consider the record given below.
Report MIC for `C/C=C/C[C@@H]1NC(=O)[C@H](CC(C)C)N2C=C(C)C[C@@H](C2=O)N(C)C(=O)[C@H](C)NC(=O)[C@H](Cc2ccc(OC)c([N+](=O)[O-])c2)NC(=O)[C@H](CC(C)C)N(C)C(=O)[C@H](Cc2cn(C(C)(C)[C@H]3CO3)c3ccccc23)NC1=O` please.
0.073
